system under test: T1, HLA-A*02:01 (human)
T1 construct: whole, on cells; MHC class I molecule, empty until peptide is added; detected with FITC anti-HLA-A02 antibody BB7.2
method summary: MHC class I stabilization on T2-A24 cells, flow cytometry, 100 ug/mL peptide
measured parameter: MFI (solvent ratio)

KPLPESIPKL [FAM83B-derived peptide F593_10] | 1.9 ratio to solvent

Incoming: Give reported MFI (solvent ratio) value for VMYGSYSYMWSF [FAM83B-derived peptide F239_12]
Outgoing: 1.6 ratio to solvent

Incoming: Give reported MFI (solvent ratio) value for LYARSCVPSSF [FAM83B-derived peptide F276_11]
Outgoing: 1.2 ratio to solvent
